Values were extracted from ChEMBL document CHEMBL1961873.

For each entry below, report its inhibition value.
Molecular target: Tyrosine-protein kinase JAK3 (Homo sapiens)
Sequence (whole entry): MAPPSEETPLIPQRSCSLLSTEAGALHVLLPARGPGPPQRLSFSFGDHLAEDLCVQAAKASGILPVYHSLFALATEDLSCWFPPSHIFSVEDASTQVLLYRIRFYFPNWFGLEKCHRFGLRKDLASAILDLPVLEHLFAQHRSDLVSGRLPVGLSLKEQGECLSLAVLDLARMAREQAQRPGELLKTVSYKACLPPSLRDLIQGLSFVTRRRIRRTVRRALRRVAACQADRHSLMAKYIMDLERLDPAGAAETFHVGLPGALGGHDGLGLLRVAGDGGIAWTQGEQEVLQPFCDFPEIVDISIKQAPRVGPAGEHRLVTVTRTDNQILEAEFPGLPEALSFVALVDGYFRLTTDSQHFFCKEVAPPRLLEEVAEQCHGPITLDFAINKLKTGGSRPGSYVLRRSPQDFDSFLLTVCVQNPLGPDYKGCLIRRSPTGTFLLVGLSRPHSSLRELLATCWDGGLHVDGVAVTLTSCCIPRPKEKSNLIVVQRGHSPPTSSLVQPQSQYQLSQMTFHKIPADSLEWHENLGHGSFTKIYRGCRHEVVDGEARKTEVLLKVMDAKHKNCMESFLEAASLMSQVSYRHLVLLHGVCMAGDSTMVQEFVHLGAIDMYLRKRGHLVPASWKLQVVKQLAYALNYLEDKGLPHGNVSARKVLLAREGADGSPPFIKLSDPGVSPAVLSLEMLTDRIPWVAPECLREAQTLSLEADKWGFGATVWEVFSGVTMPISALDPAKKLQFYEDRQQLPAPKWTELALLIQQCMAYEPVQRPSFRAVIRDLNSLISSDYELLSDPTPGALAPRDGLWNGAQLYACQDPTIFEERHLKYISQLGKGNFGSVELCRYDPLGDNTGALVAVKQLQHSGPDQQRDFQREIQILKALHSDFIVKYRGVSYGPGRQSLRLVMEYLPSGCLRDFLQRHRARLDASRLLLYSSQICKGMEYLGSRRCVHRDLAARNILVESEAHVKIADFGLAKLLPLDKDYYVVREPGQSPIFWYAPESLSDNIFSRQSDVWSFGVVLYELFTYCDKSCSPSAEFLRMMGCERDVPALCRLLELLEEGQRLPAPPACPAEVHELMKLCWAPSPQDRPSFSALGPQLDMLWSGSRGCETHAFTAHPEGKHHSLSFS
Settings: at 1 µM
Description: GSK_PKIS: JAK3 mean inhibition at 1 uM [Nanosyn]
Numbers only, in %.

>  <STRUCTURE>
CC(C)COC(=O)c1ccc2c(c1)/C(=C/Nc1ccc(S(N)(=O)=O)cc1)C(=O)N2

>  <READOUT UNITS>
%

>  <inhibition>
45.5

$$$$

Parameter requested: inhibition. Apply to each item below.
1. CS(=O)(=O)CCNCc1ccc(-c2ccc3ncnc(Nc4ccc(OCc5ccccc5)c(C(F)(F)F)c4)c3c2)o1
2. COc1ccc(-c2cc3c(N)ncnc3o2)cc1
3. CCn1c(-c2nonc2N)nc2ccccc21
4. CC(=O)NCc1cccc(C#Cc2cncnc2Nc2ccc(OCc3cccc(F)c3)c(Cl)c2)c1
5. COc1ccc(-c2oc3ncnc(N)c3c2-c2ccc(NC(=O)Nc3cc(C(F)(F)F)ccc3F)cc2)cc1
6. Fc1ccc(-c2cc(-c3c[nH]nc3-c3ccccn3)ccn2)cc1
7. CS(=O)(=O)CCNCc1coc(-c2ccc3ncnc(Nc4ccc(OCc5ccccc5)cc4)c3c2)c1

stdout:
-1.51
0.39
1.16
4.46
3.12
-3.5
0.54

###

For each entry below, report its inhibition value.
Molecular target: Serine/threonine-protein kinase PAK 1 (Homo sapiens) (UniProt Q13153);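 also: values are mean PAK1 inhibition from the GSK PKIS kinase inhibitor set screen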
Sequence (Q13153 whole entry): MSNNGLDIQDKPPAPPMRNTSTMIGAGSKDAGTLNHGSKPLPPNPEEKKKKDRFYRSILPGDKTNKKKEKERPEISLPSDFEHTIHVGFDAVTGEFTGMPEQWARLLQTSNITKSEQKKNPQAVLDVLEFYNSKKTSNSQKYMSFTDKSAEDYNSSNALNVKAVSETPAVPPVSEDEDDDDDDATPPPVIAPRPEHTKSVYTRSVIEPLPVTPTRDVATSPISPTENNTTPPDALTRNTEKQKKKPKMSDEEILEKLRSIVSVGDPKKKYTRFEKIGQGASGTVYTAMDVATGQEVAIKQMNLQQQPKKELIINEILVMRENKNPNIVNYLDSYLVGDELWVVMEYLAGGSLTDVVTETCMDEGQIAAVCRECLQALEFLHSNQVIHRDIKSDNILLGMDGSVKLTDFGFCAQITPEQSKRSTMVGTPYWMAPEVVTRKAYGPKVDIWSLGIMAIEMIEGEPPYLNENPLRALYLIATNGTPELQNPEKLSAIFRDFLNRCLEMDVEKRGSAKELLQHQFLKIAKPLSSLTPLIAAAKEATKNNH
Details: at 0.1 µM
Numbers only, in %.

>  <STRUCTURE>
CNC(=O)c1cccc(C#Cc2cncnc2Nc2ccc(OCc3cccc(F)c3)c(Cl)c2)c1

>  <TEST VALUE>
2.05

$$$$
>  <STRUCTURE>
CCc1nn2ncccc2c1-c1ccnc(NC2CC2)n1

>  <TEST VALUE>
3.36

$$$$
>  <STRUCTURE>
CCn1c(-c2nonc2N)nc2c(C#CC(C)(C)O)ncc(OC3CCNCC3)c21

>  <TEST VALUE>
2.8

$$$$
>  <STRUCTURE>
[O-][S+]1CCN(Cc2ccc(-c3ccc4ncnc(Nc5ccc(OCc6cccc(F)c6)c(Cl)c5)c4c3)o2)CC1

>  <TEST VALUE>
8.29

$$$$
>  <STRUCTURE>
Cc1ccc(O)cc1Nc1ccnc2cc(-c3ccccn3)ccc12

>  <TEST VALUE>
7.92

$$$$
>  <STRUCTURE>
c1ccc(-c2nc3n(c2-c2ccc4c(c2)OCO4)CCC3)nc1

>  <TEST VALUE>
3.44

$$$$

Parameter requested: inhibition. Apply to each item below.
1. CCn1c(-c2nonc2N)nc2c(C#CC(C)(C)O)nc(OC[C@H](N)c3ccccc3)cc21
2. CC(C)COC(=O)c1ccc2c(c1)/C(=C/Nc1ccc(S(N)(=O)=O)cc1)C(=O)N2
3. CCNC(=O)O[C@H]1CN[C@H](C#Cc2cc3ncnc(Nc4ccc(OCc5cccc(F)c5)c(Cl)c4)c3s2)C1
4. CS(=O)(=O)CCNCc1coc(-c2ccc3ncnc(Nc4ccc(OCc5ccccc5)cc4)c3c2)c1
5. NS(=O)(=O)c1ccc(Nc2ncc(-c3ccccc3)o2)cc1
6. CCn1c(-c2nonc2N)nc2cnc(Oc3cccc(NC(=O)c4ccc(N(C)C)cc4)c3)cc21
7. CC(C)(CO)CNC(=O)c1ccc2c(c1)/C(=N/Nc1ccc(S(N)(=O)=O)cc1)C(=O)N2

stdout:
1.29
-0.34
1.87
2.37
4.04
3.97
3.17

###

Target: Serine/threonine-protein kinase D3 (Homo sapiens);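 also: values are mean inhibition figures against PRKD3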
Conditions: at 1 µM
MEASURE: inhibition (%)
Answers are plain numbers, in %.

Below are worked cases with known answers.
>  <STRUCTURE>
COc1cccc(-n2ncc3c(N/N=C/c4ccc(F)cc4)ncnc32)c1

>  <inhibition [%]>
4.06

$$$$
>  <STRUCTURE>
N#Cc1c(NC(=O)c2ccc(F)cc2)sc2c1CCCC2

>  <inhibition [%]>
1.92

$$$$
>  <STRUCTURE>
CC(C)COC(=O)c1ccc2c(c1)/C(=C/Nc1ccc(S(N)(=O)=O)cc1)C(=O)N2

>  <inhibition [%]>
46.3

$$$$
>  <STRUCTURE>
Nc1nc(-c2cccc(Cl)c2)c(-c2ccc3ncccc3n2)s1

>  <inhibition [%]>
33.1

$$$$
>  <STRUCTURE>
COC(=O)Nc1nc2ccc(S(=O)(=O)c3ccc(NC(=O)Nc4cc(C(F)(F)F)ccc4F)cc3)cc2[nH]1

>  <inhibition [%]>
5.1

$$$$
>  <STRUCTURE>
CN1CCC(n2cnc(-c3ccc(F)cc3)c2-c2ccnc(Nc3ccccc3)n2)CC1

>  <inhibition [%]>
43.5

$$$$
>  <STRUCTURE>
COC(=O)c1sc(-n2cnc3cc(OC)c(OC)cc32)cc1OCc1ccccc1C(F)(F)F

>  <inhibition [%]>
5.73

$$$$
>  <STRUCTURE>
Cc1cccc2c1NC(=O)/C2=N\Nc1ccc(S(N)(=O)=O)cc1

>  <inhibition [%]>
3.85

$$$$
>  <STRUCTURE>
Fc1cccc(COc2ccc(Nc3ncnc4sc(-c5ccco5)cc34)cc2Cl)c1

>  <inhibition [%]>
4.41

$$$$
>  <STRUCTURE>
CCn1c(-c2nonc2N)nc2c(C#CC(C)(C)O)ncc(OC3CCNCC3)c21

>  <inhibition [%]>
14.2

$$$$

Parameter requested: inhibition. Apply to each item below.
1. CN1CCC(n2cnc(-c3ccc(F)cc3)c2-c2ccnc(N)n2)CC1
2. CS(=O)(=O)CCNCc1ccc(-c2ccc3ncnc(Nc4ccc(OCc5ccccc5)c(C(F)(F)F)c4)c3c2)o1
3. CS(=O)(=O)CCNCc1coc(-c2ccc3ncnc(Nc4ccc(OCc5ccccc5)cc4)c3c2)c1
4. c1cc(-c2cnn3nc(N4CCOCC4)ccc23)nc(NC2CC2)n1
5. NS(=O)(=O)c1ccc(N/N=C2\C(=O)Nc3ccc4ncccc4c32)cc1
6. COc1ccc(-c2cc3c(N)ncnc3o2)cc1
7. O=S(=O)(CCNCc1ccc(-c2ccc3ncnc(Nc4ccc(OCc5cccc(F)c5)c(Cl)c4)c3c2)o1)c1ccccc1
8. CNC(=O)c1cccc(C#Cc2cncnc2Nc2ccc(OCc3cccc(F)c3)c(Cl)c2)c1

stdout:
17.3
4.39
3.06
49.9
51.4
-1.37
5.2
0.04

Parameter requested: inhibition. Apply to each item below.
1. CCOc1ccc2c(-c3ccnc(Nc4cccc(C(F)(F)F)c4)n3)cnn2n1
2. COC(=O)Nc1nc2ccc(Oc3ccc(NC(=O)Nc4cccc(Cl)c4)cc3)cc2[nH]1
3. N#Cc1c(NC(=O)CN2CCOCC2)sc2c1CCCC2

stdout:
[3.58, 3.39, 6.46]

###

Biological target: Ribosomal protein S6 kinase alpha-5 (Homo sapiens)
Details: at 0.1 µM
For each entry below, report its inhibition value.
Please answer in the form of a number followed by its unit of measurement.

>  <COMPOUND>
CC1=C(C(=O)Nc2cc(Cl)c3[nH]ncc3c2)C(c2ccc(C(F)(F)F)cc2)CC(=O)N1 (centres undefined)

>  <inhibition>
56.3%

$$$$
>  <COMPOUND>
COC(=O)Nc1nc2ccc(Oc3ccc(NC(=O)Nc4cccc(Cl)c4)cc3)cc2[nH]1

>  <inhibition>
0.39%

$$$$
>  <COMPOUND>
CC(=O)NCc1cccc(C#Cc2cncnc2Nc2ccc(OCc3cccc(F)c3)c(Cl)c2)c1

>  <inhibition>
-4.98%

$$$$
>  <COMPOUND>
CCc1nn2ncccc2c1-c1ccnc(NC2CC2)n1

>  <inhibition>
0.41%

$$$$

Parameter requested: inhibition. Apply to each item below.
1. Nc1ncc(-c2cccc(S(N)(=O)=O)c2)c2scc(-c3ccc(F)c(Cl)c3)c12
2. CCn1c(-c2nonc2N)nc2c(C#CC(C)(C)O)nc(OC[C@H](N)c3ccccc3)cc21
3. [O-][S+]1CCN(Cc2ccc(-c3ccc4ncnc(Nc5ccc(OCc6cccc(F)c6)c(Cl)c5)c4c3)o2)CC1
4. CNC(=O)c1cc(-c2ccc(F)cc2)cc(-c2ccc(S(=O)(=O)N3CCCC3)cc2)c1N
5. FC(F)(F)c1cccc(-c2nn3ncccc3c2-c2ccnc(Nc3ccc4c(c3)OCCO4)n2)c1

stdout:
2.3%
3.37%
3.5%
9.11%
1.59%

Parameter requested: inhibition. Apply to each item below.
1. COc1cc2c(cc1Nc1nc(Nc3ccsc3C(N)=O)c3cc[nH]c3n1)N(C(=O)CN(C)C)CCC2(C)C
2. CCCN1CCC(c2ccc(Nc3nc(Nc4cc(F)ccc4C(N)=O)c4cc[nH]c4n3)c(OC)c2)CC1

stdout:
["4.6%", "2.89%"]

Parameter requested: inhibition. Apply to each item below.
1. CCOc1ccc2c(-c3ccnc(Nc4cccc(C(F)(F)F)c4)n3)cnn2n1
2. COc1cccc(-c2c[nH]c3c(N/N=C/c4ccncc4)ncnc23)c1

stdout:
0.66%
8.98%

stdin: Item: CCn1c(-c2nonc2N)nc2ccccc21 Test system: Ribosomal protein S6 kinase alpha-5 (Homo sapiens) Read-out: inhibition Value: ?;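 also: mean inhibition of MSK1 reported, from a GSK PKIS inhibitor set screen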
stdout: 23.3%
